Consider the following molecules; for each one, report its efficacy.
- Test system: Venturia inaequalis
- experiment: Venturia test (apple)/protective
- recorded.conditions: apple plants, protective spray, 100 ppm active ingredient, evaluation 10 days after inoculation
One number for each entry, in %.

See these solved cases before continuing.
- molecule: "CC1(C(O)(COc2ccc(Cl)cc2)c2cncs2)CC1 (stereo not drawn)"
  efficacy, %: 98
- molecule: "CC(C)(C)C(O)(COc1ccc(I)cc1)c1cncs1 (stereo not drawn)"
  efficacy, %: 99
- molecule: "CC(C)(C)C(O)(COc1ccc(Br)cc1)c1cncs1 (stereo not drawn)"
  efficacy, %: 93

Please give efficacy, item by item, for the list that follows.
1. OC(Cc1cncs1)(Cc1ccccc1Cl)C1(Cl)CC1 (stereo not drawn)
2. CC(C)(C)C(O)(COc1ccc(C2CC2)cc1)c1cncs1 (stereo not drawn)
3. CC(C)(C)C(O)(COc1ccc(SC(F)(F)F)cc1)c1cncs1 (stereo not drawn)
4. CO/N=C/c1ccc(OCC(O)(c2cncs2)C(C)(C)C)cc1 (stereo not drawn)
5. CC1(C(O)(COc2ccc(Br)cc2)c2cncs2)CCCCC1 (stereo not drawn)
6. OC(Cc1cncs1)(Cc1ccccc1F)C1(Cl)CC1 (stereo not drawn)

1. 100
2. 100
3. 95
4. 100
5. 99
6. 100
